B1: TRIM15 (parent)
chain: QSSGKILLCPLCQEEEQAETPMAP

Variants of: B1
experimentDescription: protein stability index of a GFP-peptide fusion (GPS, HEK-293T) (PSI 1-6); higher = more stable;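 further: lentivirally expressed fusions sorted by FACS into six bins by GFP to DsRed ratio, PSI derived from sequencing read proportions per bin multiplied by bin number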
studyConditions: c terminus: a fixed tail appended
// reported protein stability index for each item listed
endpointName: protein stability index

itemSequence: QSSGKILLCPLCQEFEQAETPMAP [E15F]
endpointName: protein stability index
observedMeasurement: 2
//
itemSequence: QSSKKILLCPLCQEEEQAETPMAP [G4K]
endpointName: protein stability index
observedMeasurement: 4.13
//
itemSequence: QSSGKILLCPLCVEEEQAETPMAP [Q13V]
endpointName: protein stability index
observedMeasurement: 3.91
//
itemSequence: QSAGKILLCPLCQEEEQAETPMAP [S3A]
endpointName: protein stability index
observedMeasurement: 3.62
//
itemSequence: KSSGKILLCPLCQEEEQAETPMAP [Q1K]
endpointName: protein stability index
observedMeasurement: 3.46
//
itemSequence: QSSGKILLCPLCQEEEQAEYPMAP [T20Y]
endpointName: protein stability index
observedMeasurement: 2.89
//
itemSequence: QSSGKILLCPLCQEEEQAETPMYP [A23Y]
endpointName: protein stability index
observedMeasurement: 2.94
//
itemSequence: QSSGKILLCPLCQEESQAETPMAP [E16S]
endpointName: protein stability index
observedMeasurement: 2.59
//
itemSequence: QSSGKILLAPLCQEEEQAETPMAP [C9A]
endpointName: protein stability index
observedMeasurement: 5.01
//
itemSequence: QSSGKILLLPLCQEEEQAETPMAP [C9L]
endpointName: protein stability index
observedMeasurement: 4
//
itemSequence: MSSGKILLCPLCQEEEQAETPMAP [Q1M]
endpointName: protein stability index
observedMeasurement: 2.63
//
itemSequence: QSSGKILKCPLCQEEEQAETPMAP [L8K]
endpointName: protein stability index
observedMeasurement: 3.83
//
itemSequence: QSSGKILLCPLCQEEEQCETPMAP [A18C]
endpointName: protein stability index
observedMeasurement: 3.33
//
itemSequence: QSSGKILLCPQCQEEEQAETPMAP [L11Q]
endpointName: protein stability index
observedMeasurement: 4.24
//
itemSequence: QYSGKILLCPLCQEEEQAETPMAP [S2Y]
endpointName: protein stability index
observedMeasurement: 2.85
//
itemSequence: QSSGKILLCPTCQEEEQAETPMAP [L11T]
endpointName: protein stability index
observedMeasurement: 4.81
//
itemSequence: QSSGKILLCPLCQEEEQAKTPMAP [E19K]
endpointName: protein stability index
observedMeasurement: 3.94
//
itemSequence: QSYGKILLCPLCQEEEQAETPMAP [S3Y]
endpointName: protein stability index
observedMeasurement: 2.82
//
itemSequence: QSSGKILLCPVCQEEEQAETPMAP [L11V]
endpointName: protein stability index
observedMeasurement: 4.09
//
itemSequence: QSSNKILLCPLCQEEEQAETPMAP [G4N]
endpointName: protein stability index
observedMeasurement: 2.76
//
itemSequence: QSSGKMLLCPLCQEEEQAETPMAP [I6M]
endpointName: protein stability index
observedMeasurement: 3.72
//
itemSequence: QSSGKILLCPLCQEEEQAETPMVP [A23V]
endpointName: protein stability index
observedMeasurement: 4.12
